System: DLD-1 KLF5 promoter-luciferase reporter, luminescence
Assay: KLF5 promoter reporter inhibitors, dose response, luminescence, DLD-1 cells, luciferase reporter (AID 1973)
pIC50: −log10 of the molar value.
If the reported pIC50 equals or exceeds 6, assign Yes. If not, assign No.

CC(C)(C)c1ccc(-c2noc(CCC(N)=O)n2)cc1
Yes
COc1ccc(C(=O)Nc2nc3ccccc3s2)c(OC)c1
No
Oc1cccc(/C=N/Nc2ccc(Cl)nn2)c1O
No
COc1ccc(OC)c(Nc2cc(C)nc3nc(C)nn23)c1
Yes
O=C(NC1=NCCS1)C1COc2ccccc2O1 (centres undefined)
No

Is pIC50 for `CNC1=C(N(C(C)=O)c2ccc(Br)cc2)C(=O)c2ccccc2C1=O` at or above 6?
No

Is pIC50 for `O=C(Nc1cccc(O)c1)c1cc(-c2ccc3c(c2)OCO3)on1` at or above 6?
No

Is pIC50 for `Cc1ccc(C(=O)O/N=C(\N)c2ccccn2)c(Cl)c1` at or above 6?
No

Is pIC50 for `CCNC(=S)NNC(=O)c1cc(-c2ccc(OCC)cc2)nc2ccccc12` at or above 6?
No

Is pIC50 for `COc1ccccc1N1CCN(Cc2cc(Br)c(O)c3ncccc23)CC1` at or above 6?
No

---

Test system: DLD-1 KLF5 promoter-luciferase reporter, luminescence
Experiment: KLF5 promoter reporter inhibitors, dose response, luminescence, DLD-1 cells, luciferase reporter (AID 1973)
property-name: pIC50
Keep in mind that pIC50 stands for -log10 of concentration in molar terms.

COc1ccc(OCc2cccc(C(=O)Nn3cc([N+](=O)[O-])cn3)c2)cc1
6.48
COc1cccc(/C=N/Nc2ccc(C(=O)O)cc2)c1O
7.37
O=C(N/N=C/c1cc(O)ccc1Br)c1cccnc1
5.77
CN(C(=O)COC(=O)/C=C/c1cccc([N+](=O)[O-])c1)C1CCS(=O)(=O)C1 (stereo unspecified)
6.29
CN(C)c1ccc(/C=C/c2nc3ccccc3c(=O)[nH]2)cc1
5.82

Kindly consider the entry below.
Which pIC50 reading was recorded for the molecule `COc1cccc(/C=N/Nc2ncc(C(F)(F)F)cc2Cl)c1O` ?
6.25

---

Test system: DLD-1 KLF5 promoter-luciferase reporter, luminescence
Test: KLF5 promoter reporter inhibitors, dose response, luminescence, DLD-1 cells, luciferase reporter (AID 1973)
Measured pIC50 accompanies every entry in the list below.
Keep in mind that pIC50 stands for -log10 of concentration in molar terms.

Cc1cc(-c2ccccc2)n(-c2cc(N/N=C/c3ccccc3O)ncn2)n1
6.00
COc1cc(N=Cc2c(O)[nH]c3ccccc23)cc(OC)c1OC
5.99
CCCS(=O)(=O)c1cnc(C2COc3ccccc3O2)nc1N (centres undefined)
5.85
O=C(Nc1ccc(N2CCCCC2)cc1)c1ccccn1
6.15
O=C(CCCc1ccccc1)c1ccc2c(c1)OCCO2
5.91

Which pIC50 reading was recorded for the compound `c1ccc(-c2noc(-c3ccc4ccccc4c3)n2)nc1` ?
6.10

Which pIC50 reading was recorded for the compound `O=C(N/N=C/c1c(O)ccc2ccccc12)c1cccnc1` ?
5.79

Which pIC50 reading was recorded for the compound C[C@]12CCC3C(CCC4=CC(O)CC[C@@]43/C=N/O)C1(O)CCC2C1=CC(=O)OC1 (some centres undefined) ?
5.66

Which pIC50 reading was recorded for the compound CCCCN=C[C@]12CCC(O)CC1(O)CCC1[C@@H]2CC[C@]2(C)[C@H](C3C=CC(=O)O3)CCC12O (some centres undefined) ?
5.69

Which pIC50 reading was recorded for the compound `O=C(Nc1cccnc1)c1cccs1` ?
6.02
